- Test system: blackgrass (Alopecurus myosuroides)
- protocol summary: Postemergence herbicidal activity, blackgrass
- Format: in vivo
- condition details: 7.8 ppm, foliar spray, visual after 2 weeks; 0 no injury, 100 complete kill
readout kind: ALOMY postemergence injury score 0-100
Give me the value, and tack the unit on after it.

Some solved cases for reference:
>  <compound structure>
COc1ccsc1S(=O)(=O)Nc1nc2c(Cl)cnc(OC)n2n1

>  <ALOMY postemergence injury score 0-100>
70%

$$$$
>  <compound structure>
COc1sccc1S(=O)(=O)Nc1nc2c(OC)cnc(OC)n2n1

>  <ALOMY postemergence injury score 0-100>
50%

$$$$
>  <compound structure>
COc1cnc(OC)n2nc(NS(=O)(=O)c3ccsc3CC(=O)O)nc12

>  <ALOMY postemergence injury score 0-100>
80%

$$$$
>  <compound structure>
COc1cc(OC)n2nc(NS(=O)(=O)c3c(OC)csc3C)nc2n1

>  <ALOMY postemergence injury score 0-100>
80%

$$$$

Consider the record given below.
// returns reported ALOMY postemergence injury score 0-100 for input CCOc1cscc1S(=O)(=O)Nc1nc2c(OC)cnc(OC)n2n1
80%

###

- Tested on: crabgrass (Digitaria sanguinalis)
- protocol summary: Preemergence herbicidal activity, crabgrass
- Type: in vivo
- condition details: 35 g/Ha, soil spray, visual after 3 weeks; 0 no injury, 100 complete kill or no germination
Form field: DIGSA preemergence injury score 0-100 (one value per entry).
Report the value in % with no unit label.

Some solved cases for reference:
>  <compound>
COc1cc(Cl)sc1S(=O)(=O)Nc1nc2c(OC)cnc(OC)n2n1 [Compound 3]

>  <readout kind>
DIGSA preemergence injury score 0-100

>  <result value>
95

$$$$
>  <compound>
COc1cscc1S(=O)(=O)Nc1nc2c(Cl)cnc(OC)n2n1 [Compound 14]

>  <readout kind>
DIGSA preemergence injury score 0-100

>  <result value>
100

$$$$
>  <compound>
COc1cscc1S(=O)(=O)Nc1nc2c(OC)ccc(OC)n2n1 [Compound 16]

>  <readout kind>
DIGSA preemergence injury score 0-100

>  <result value>
30

$$$$

Consider the record given below.
// returns reported DIGSA preemergence injury score 0-100 for input COc1cscc1S(=O)(=O)Nc1nc2c(C)cnc(OC)n2n1 [Compound 17]
30

###

- Test system: wild oats (Avena fatua)
- protocol summary: Preemergence herbicidal activity, wild oats
- Format: in vivo
- condition details: 35 g/Ha, soil spray, visual after 3 weeks; 0 no injury, 100 complete kill or no germination
readout kind: AVEFA preemergence injury score 0-100

Some solved cases for reference:
>  <compound structure>
COc1cc(Cl)sc1S(=O)(=O)Nc1nc2c(OC)cnc(OC)n2n1

>  <result value>
70%

$$$$
>  <compound structure>
COc1cc(OC)n2nc(NS(=O)(=O)c3sc(Cl)cc3OC)nc2n1

>  <result value>
60%

$$$$

Consider the record given below.
Recall the recorded AVEFA preemergence injury score 0-100 for COc1cscc1S(=O)(=O)Nc1nc2c(C)cnc(OC)n2n1 with wild oats (Avena fatua) and state it.
30%

###

Form field: ABUTH postemergence injury score 0-100 (one value per entry).
- Tested on: velvetleaf (Abutilion theophrasti)
- protocol summary: Postemergence herbicidal activity, velvetleaf
- Assay type: in vivo
- condition details: 31.3 ppm, foliar spray, visual after 2 weeks; 0 no injury, 100 complete kill
- Experimental: Seeds of the desired test plant species were planted in Grace-Sierra MetroMix® 306 planting mixture, which typically has a pH of 6.0 to 6.8 and an organic matter content of about 30 percent, in plastic pots with a surface area of 64 square centimeters. […] After 2 weeks the condition of the test plants as compared with that of the untreated plants was determined visually and scored on a scale of 0 to 100 percent where 0 corresponds to no injury and 100 corresponds to complete kill.
Report the value in % with no unit label.

Recall the recorded ABUTH postemergence injury score 0-100 for COc1csc(C)c1S(=O)(=O)Nc1nc2c(Cl)cnc(OC)n2n1 [Compound 22] with velvetleaf (Abutilion theophrasti) and state it.
70

Recall the recorded ABUTH postemergence injury score 0-100 for COc1cscc1S(=O)(=O)Nc1nc2c(Cl)cnc(OC)n2n1 [Compound 14] with velvetleaf (Abutilion theophrasti) and state it.
90

Recall the recorded ABUTH postemergence injury score 0-100 for COc1cscc1S(=O)(=O)Nc1nc2c(C)cnc(OC)n2n1 [Compound 17] with velvetleaf (Abutilion theophrasti) and state it.
85

Recall the recorded ABUTH postemergence injury score 0-100 for COc1csc(Cl)c1S(=O)(=O)Nc1nc2c(Cl)cnc(OC)n2n1 [Compound 20] with velvetleaf (Abutilion theophrasti) and state it.
85
